The following binders are shown together with reported pKd values.
- subject of test: T1, GST:HD (UniProt Q01826 640-763)
- T1 sequence: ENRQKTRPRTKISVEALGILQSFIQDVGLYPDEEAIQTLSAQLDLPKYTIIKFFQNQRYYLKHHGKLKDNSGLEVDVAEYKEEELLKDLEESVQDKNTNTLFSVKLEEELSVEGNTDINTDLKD
- assay name: EMSA
pKd: −log10 of the molar value.
endpoint label: pKd

binder="CSBS dimer (probe 1) (dsDNA) DNA 1: TATTAGTAATAATATTAGTAATAA DNA 2: TTATTACTAATATTATTACTAATA" recorded_measurement=6.70
binder="probe 10 (dsDNA) DNA 1: TATTAGTAATACTATTAGTAATAC DNA 2: GTATTACTAATAGTATTACTAATA" recorded_measurement=6.70

Values were extracted from paper PMC2367706.
